The measurements presented in this section are drawn from patent US20250250258A1.

# procedure_details: Pharmacokinetic experiment in ICR mice, single gavage
# Format: in vivo
# test_parameters: mouse, in vivo, po, 75 mg·kg −1, single gavage
property_measured: half-life (h)
All answers are understood in h, so give the number only.

Query block: # lookup: half-life of C=CC(=O)Nc1cc(N2CCN(CC)C3(CC3)C2)ccc1Nc1cc(N(C)C(=O)Nc2c(Cl)c(OC)cc(OC)c2Cl)ncn1.CCS(=O)(=O)O.CCS(=O)(=O)O [crystal form A]
Result block: 1.52
